Would you kindly list inhibition for each of these molecules?
Tested Target: Glucose transporter (Leishmania mexicana) (UniProt O61059)
Protocol Notes: ST_JUDE_LEISH: Cytotoxicity at 2uM final concentration against transgenic Leishmania Mexicana promastigotes LmGT2 that are glucose transport deficient and complemented with the L. Mexicana glucose transporter 2. Activity is measured by DNA content using SYBR green in vitro
Format: functional
Give bare numbers, in %.

COc1cccc(Nc2nc(Nc3cccc(C#N)c3)cc(C(F)(F)F)n2)c1 | 6.05
Cc1cc2ncn(-c3nccc(NCc4ccc(F)cc4)n3)c2cc1C | -0.57
COc1ccc2nccc(N/N=C/c3ccccc3[N+](=O)[O-])c2c1 | 0.03

Respectfully, I request inhibition for each entry included below.
1. COc1ccc(/N=[N+](\[O-])c2ccccc2/[N+]([O-])=N/c2ccc(OC)cc2)cc1
2. Cc1nnc2c(NC(=O)NC3CCCC3)cc3cc(-c4ccc(CN5CCN(C)CC5)cc4)ccc3n12
3. Clc1ccc(-c2cc(-c3csc(NCCN4CCOCC4)n3)on2)c(Cl)c1
4. CC(C)(C)OC(=O)N(Cc1cc(-n2nnnc2C(F)(F)F)ccc1O)[C@H]1CCCN(C(=O)OC(C)(C)C)[C@H]1c1ccccc1

Key:
1. 1.68
2. 4.79
3. 10.6
4. -3.2

Respectfully, I request inhibition for each entry included below.
1. CN1CCN(c2ccnc3ccc(NC(=O)Nc4ccc(Cl)cc4)cc23)CC1
2. COc1ccc2nccc([C@@H](O)CN3CCC(NC(=O)C(c4ccsc4)N4CCN(c5ccccc5OC)CC4)CC3)c2c1 (stereo partly drawn)

Key:
1: -1.7; 2: 0.49
